# Kd listing for each entry below
- Assay Target: T1, recombinant talin-1 head domain (THD)
- T1 chain: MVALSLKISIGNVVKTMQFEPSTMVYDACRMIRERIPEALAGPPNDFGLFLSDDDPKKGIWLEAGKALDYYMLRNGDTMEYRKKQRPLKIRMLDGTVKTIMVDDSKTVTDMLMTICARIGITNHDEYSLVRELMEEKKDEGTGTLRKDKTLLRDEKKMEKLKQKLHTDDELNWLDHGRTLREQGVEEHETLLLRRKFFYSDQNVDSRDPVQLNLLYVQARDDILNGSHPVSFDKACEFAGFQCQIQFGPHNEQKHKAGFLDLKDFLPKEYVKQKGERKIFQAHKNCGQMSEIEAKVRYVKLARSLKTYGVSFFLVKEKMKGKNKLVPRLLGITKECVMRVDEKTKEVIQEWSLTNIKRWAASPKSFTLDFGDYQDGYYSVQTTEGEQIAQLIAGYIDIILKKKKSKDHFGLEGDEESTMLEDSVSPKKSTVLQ
- Assay Summary: MST
Non-standard residues stand in square brackets, D forms with d. No end group written: not given here. pT = C[C@@H](OP(=O)(O)O)[C@H](N)C(=O)O
Measurement Name: Kd (µM)

>  <Binder>
HDRREFAKFEKEKMNAKWDTGENPIYKSAV[pT][pT]VVNPKYEGK (also: Atto488 label, position not given here) [β1-pTpT peptide, Atto488-labeled]

>  <Endpoint Result>
140

$$$$
>  <Binder>
HDRREFAKFEKEKMNAKWDTGENPIYKSAVDDVVNPKYEGK (also: Atto488 label, position not given here) [β1-TT/DD peptide, Atto488-labeled]

>  <Endpoint Result>
170

$$$$
>  <Binder>
HDRREFAKFEKEKMNAKWDTGENPIYKSAVAAVVNPKYEGK (also: Atto488 label, position not given here) [β1-TT/AA peptide, Atto488-labeled]

>  <Endpoint Result>
100

$$$$
>  <Binder>
HDRREFAKFEKEKMNAKWDTGENPIYKSAVTTVVNPKYEGK (also: Atto488 label, position not given here) [β1-WT peptide, Atto488-labeled]

>  <Endpoint Result>
140

$$$$
